Assay: gradient 5% acetonitrile 3 min, to 50% in 2 min, to 85% in 15 min, held 3 min, 100 µL/min
Conditions: column: Zorbax Extend-C18 2.1 x 50 mm; eluents: water / acetonitrile, 0.1% formic acid
Criterion: RP-LC retention time meeting or surpassing 700 s. Met: label 1. Not met: label 0.

Is reported RP-LC retention time greater than or equal to 700 s here: COc1ccccc1Nc1c(-c2ccc(C(=O)O)cc2)nc2cnccn12
label 1

Is reported RP-LC retention time greater than or equal to 700 s here: COc1cc(OC)cc(C(=O)Nc2ccc(N3CCN(C4CCCCC4)C3=O)nc2)c1
label 1

Is reported RP-LC retention time greater than or equal to 700 s here: Cc1cc(=O)n(CC(=O)NCc2ccc(F)cc2F)c(N)n1
label 0

Is reported RP-LC retention time greater than or equal to 700 s here: COc1ccc(NC(=O)C2CCN(c3cc(N4CCCC4)ncn3)CC2)cc1Cl
label 0

Is reported RP-LC retention time greater than or equal to 700 s here: CCOc1ccc(C(=O)N2CCC3(CC2)NCc2ccccc2-n2ccnc23)cc1
label 0

Is reported RP-LC retention time greater than or equal to 700 s here: Cc1ccc(-c2nc(NCc3cccnc3)ncc2C(=O)O)cc1
label 0

Is reported RP-LC retention time greater than or equal to 700 s here: CCc1nc(OCC(=O)Nc2ccc(Cl)cc2Cl)c2ccccc2n1
label 1

Is reported RP-LC retention time greater than or equal to 700 s here: CC(C)CNC(=O)N1CCN(Cc2nc3cccnc3n2-c2cccc(F)c2)CC1
label 0

Is reported RP-LC retention time greater than or equal to 700 s here: O=c1ccc(-c2ccc3c(c2)OCO3)nn1CCc1nc(-c2cccc(Br)c2)no1
label 1

Is reported RP-LC retention time greater than or equal to 700 s here: CCOc1cc(C(=O)NC(C)C(=O)Nc2nc3ccccc3[nH]2)cc(OCC)c1OCC (stereo not given)
label 1

Is reported RP-LC retention time greater than or equal to 700 s here: COc1ccc(CC(=O)N2CCCC2c2c(C)noc2C)cc1 (stereo not given)
label 1

Is reported RP-LC retention time greater than or equal to 700 s here: Cc1ccc2ncn(C3CCN(C(=O)Nc4ccccc4C)CC3)c(=O)c2c1
label 1

Is reported RP-LC retention time greater than or equal to 700 s here: COc1cccc(CN(C)C2CCc3nn(CC4CC4)c(=O)n3CC2)n1 (stereo not given)
label 0

Is reported RP-LC retention time greater than or equal to 700 s here: CC(=O)c1cccc(NC(=O)CN2C(=O)COc3ccc(C(=O)N(C)C)cc32)c1
label 0

Is reported RP-LC retention time greater than or equal to 700 s here: CCOC(=O)COC(=O)c1cn(-c2ccc(CC)cc2)c(=O)c2ccccc12
label 1

Is reported RP-LC retention time greater than or equal to 700 s here: COc1ccc(N2CCN(C(=O)NC3CCOCC3)CC2)cc1
label 0

Is reported RP-LC retention time greater than or equal to 700 s here: COc1ccc(CCc2nc3nccc(-c4ccc(OC)cc4)n3n2)cc1
label 1

Is reported RP-LC retention time greater than or equal to 700 s here: CCCn1c(=O)c(C)nc2cc(-c3noc(CNS(=O)(=O)c4ccccc4)n3)ccc21
label 1

Is reported RP-LC retention time greater than or equal to 700 s here: Cc1nc2cc(-c3noc(-c4ccc(C#N)cc4)n3)ccc2n(C)c1=O
label 1

Is reported RP-LC retention time greater than or equal to 700 s here: CCc1nc(OCC(=O)NCc2ccccc2)c2ccccc2n1
label 1

Is reported RP-LC retention time greater than or equal to 700 s here: Cc1ccc2nc(N3CCN(c4ccc(F)cc4)CC3)c(-c3noc(C)n3)cc2c1
label 1

Is reported RP-LC retention time greater than or equal to 700 s here: O=C(OCc1ccncc1)c1cn(-c2cccc(Cl)c2)c(=O)c2ccccc12
label 1

====

Assay: gradient 5% acetonitrile 3 min, to 50% in 2 min, to 85% in 15 min, held 3 min, 100 µL/min
Conditions: column: Zorbax Extend-C18 2.1 x 50 mm; eluents: water / acetonitrile, 0.1% formic acid
Property Measured: RP-LC retention time (s)
The response must be a number in s with no trailing unit.

Given the compound COc1ccc(C(=O)N2CCc3c(c(C(=O)N4CCCC(C(=O)NC5CC5)C4)nn3C)C2)c(OC)c1 (stereo not drawn) , write its reported RP-LC retention time.
638

Given the compound Cc1cc(C)n2nc(SCC(=O)NCc3ccc(F)cc3)nc2n1 , write its reported RP-LC retention time.
671

Given the compound CN1C(=O)c2cccnc2Sc2cc(NC(=O)c3ccc(Cl)s3)ccc21 , write its reported RP-LC retention time.
870

Given the compound Cn1c(=O)c2cc(C(=O)NCc3ccccc3Cl)sc2n(C)c1=O , write its reported RP-LC retention time.
795

Given the compound COCCN1C(=O)CC[C@]2(C(=O)NCc3cc(F)ccc3F)CCCC[C@@H]12 , write its reported RP-LC retention time.
724

Given the compound Cn1nc(N2CCCC(NS(=O)(=O)c3cccc(Cl)c3)C2)ccc1=O (stereo not drawn) , write its reported RP-LC retention time.
775

Given the compound COc1ccc(NC(=O)c2cn3c(n2)CCCC3)cc1F , write its reported RP-LC retention time.
601

Given the compound O=C(Cn1c(=O)c2cc(-c3cccs3)nn2c2ncccc21)NCc1ccccc1 , write its reported RP-LC retention time.
830

Given the compound CCn1cc(C(=O)NCc2cccc(Br)c2)c2cccnc21 , write its reported RP-LC retention time.
854

Given the compound O=C(c1cn(-c2cc(N3CCSCC3)ncn2)cn1)N1CCCc2ccccc21 , write its reported RP-LC retention time.
780

Given the compound Cc1nn(CC(=O)N2CCC(Cc3ccccc3)CC2)c(=O)c2noc(C)c12 , write its reported RP-LC retention time.
832

Given the compound COc1ccc(C(C)NC(=O)Cc2cn(C)c3ncccc23)cc1 (stereo not drawn) , write its reported RP-LC retention time.
678

Given the compound CC1CC(C)CN(c2nccn3c(=O)n(CC(=O)Nc4ccc(F)cc4F)nc23)C1 (stereo not drawn) , write its reported RP-LC retention time.
902

====

Test: gradient 5% acetonitrile 3 min, to 50% in 2 min, to 85% in 15 min, held 3 min, 100 µL/min
Settings: column: Zorbax Extend-C18 2.1 x 50 mm; eluents: water / acetonitrile, 0.1% formic acid
Property Measured: RP-LC retention time (s)
The response must be a number in s with no trailing unit.

Given the compound COc1ccc(C2C(C(=O)Nc3cc(OC)ccc3OC)c3ccccc3C(=O)N2C)cc1 (stereo not drawn) , write its reported RP-LC retention time.
929

Given the compound COc1cccc(-n2nnc(C(=O)O)c2C(C)C)c1 , write its reported RP-LC retention time.
734

Given the compound COc1ccc(-c2cc3c4nnc(CCC(=O)NCc5ccco5)n4ccn3n2)cc1 , write its reported RP-LC retention time.
665

Given the compound CCS(=O)(=O)c1nc2ccc(NS(=O)(=O)c3c(C)c(C)cc(C)c3C)cc2s1 , write its reported RP-LC retention time.
1020

Given the compound CCn1cc(C(=O)Nc2cccc(C)c2C)c2cccnc21 , write its reported RP-LC retention time.
854

Given the compound CCOC(=O)N1CCN(C(=O)c2cc(S(=O)(=O)N3CCOCC3)ccc2OC)CC1 , write its reported RP-LC retention time.
636

Given the compound COC(=O)c1ccc(NC(=O)C2CC(=O)N(c3ccc4c(c3)CCN4C(C)=O)C2)cc1 (stereo not drawn) , write its reported RP-LC retention time.
700

Given the compound O=C(Cn1ccc2ccn(Cc3ccccc3)c2c1=O)NCc1ccccc1Cl , write its reported RP-LC retention time.
888

Given the compound Cc1oc2ncn(CCC(=O)N3CCN(c4ccccn4)CC3)c(=O)c2c1C , write its reported RP-LC retention time.
573

Given the compound CN1c2cc(C(=O)N3CCN(c4ccccc4F)CC3)ccc2C(=O)N2CCCCC21 (stereo not drawn) , write its reported RP-LC retention time.
877

Given the compound Cc1ccc(-n2cc3c(N4CCCC(C(=O)NCc5ccc(Cl)cc5)C4)ncnc3n2)cc1 (stereo not drawn) , write its reported RP-LC retention time.
750

Given the compound CCC1CN2C=Nc3oc(C)c(C(=O)Nc4cccc(Cl)c4C)c3C2=N1 (stereo not drawn) , write its reported RP-LC retention time.
687

Given the compound O=C(Nc1cnn(-c2ncc(N3CCCC3)cn2)c1)c1ccccc1C(F)(F)F , write its reported RP-LC retention time.
817

Given the compound CCc1cccc(NC(=O)Cc2nnc3cc(-c4nc(C(C)C)no4)ccn23)c1 , write its reported RP-LC retention time.
918

Given the compound COc1ccc2[nH]cc(CCNC(=O)CCc3c(C)nc4c(c3C)c(=O)n(C)c(=O)n4C)c2c1 , write its reported RP-LC retention time.
788

Given the compound Cn1c(=O)sc2cc(S(=O)(=O)N3CCC(C(=O)Nc4ccc(Cl)cc4)CC3)ccc21 , write its reported RP-LC retention time.
926

Given the compound Cc1nc(-c2cc(S(=O)(=O)NCC(=O)N3CCN(c4cccc(Cl)c4)CC3)c(C)s2)no1 , write its reported RP-LC retention time.
829

Given the compound CCOc1ccc2nc(C(=O)NC3CCCCCC3)cn2n1 , write its reported RP-LC retention time.
982

Given the compound Cc1ncoc1C(=O)NCC1Cn2cccc2C(=O)N1C (stereo not drawn) , write its reported RP-LC retention time.
583

Given the compound Cc1cc2c(cc1NC(=O)c1ccco1)n(C)c(=O)n2C , write its reported RP-LC retention time.
635

Given the compound O=C(c1ccc(Br)o1)N1CCC(c2cnn(-c3cccc(F)c3)c2)CC1 , write its reported RP-LC retention time.
1000

Given the compound O=C(N[C@H]1C[C@@H]2C[C@H]1CN2S(=O)(=O)c1cccc2cccnc12)c1ccccc1 , write its reported RP-LC retention time.
792

Given the compound CCCc1nc(NCc2ccc3c(c2)OCO3)ncc1C(=O)O , write its reported RP-LC retention time.
791

Given the compound CC(=O)c1cccc(NC(=O)Cn2c(=O)n(-c3ccccc3)c(=O)c3c2cc(C)n3C)c1 , write its reported RP-LC retention time.
763

Given the compound Cc1cc(C2CCCN2C(=O)Cc2ccc(Cl)cc2)no1 (stereo not drawn) , write its reported RP-LC retention time.
824

Given the compound COc1ccc(OC)c(CNC(=O)Cc2nnc(-c3cccs3)o2)c1 , write its reported RP-LC retention time.
700

Given the compound Cc1nc(-c2csc(S(=O)(=O)N3CCCC(C(=O)N4CCc5ccccc5C4)C3)c2)no1 (stereo not drawn) , write its reported RP-LC retention time.
977

Given the compound COCCN1C(=O)[C@H]2CN(Cc3ccc(OC(F)(F)F)cc3)C[C@H]2C1=O , write its reported RP-LC retention time.
694
